- Test system: MS2 coat protein
- Assay Explanation: apparent Kd, MS2 coat protein; higher = weaker binding; RNA-MaP array; FMN 200 µM where present
- Test Parameters: ligand present: flavin mononucleotide; designed as: OFF switch for flavin mononucleotide
Outcome Measure: apparent Kd (nM)
Give the quantity in nM, number only.

Past entries and their recorded results:
INSERT INTO assay_data (residue_string, measured_on, unit_name, experimental_result) VALUES
  ('CUUAUGUGAGGAUAUGGUGUUGGCCACAGGGAAAAGGUCCUCCAGAAGGCACAUGAGGAUCACCCAUGUAGUGA', 'MS2 coat protein', 'nM', 56.3),
  ('GCCUUAUCGGUCAGGAUAUACACCCGUCAGUUGUUGUAGAAGGGACAUGAGGAUCACCCAUGUACAUUACAUUG', 'MS2 coat protein', 'nM', 45.5),
  ('GUCAGCUCGUGAGGAUAUACAACACUGCUUCGGCAGUGUAUUAAGAUUACAUGAGGAUCACCCAUGUAGAAGGCACGAGCUGAU', 'MS2 coat protein', 'nM', 6.95),
  ('GUAGAGUAGUGAGGAUAUACGAGUUCGAUAGAACGGCGAUCCAUUAAUACAUGAGGAUCACCCAUGUAGAAGGCACUUCUCUAC', 'MS2 coat protein', 'nM', 69.3),
  ('UGUACCGUUGGAACGCGUCGAGUACAUGAGGAUCACCCAUGUCAGGAUAUGUGGCGAAAGGUAGCACAGAAGGGACAUAGAAGA', 'MS2 coat protein', 'nM', 92.3),
  ('AAAACUGGAGGAUAUACAUGAGGAUCACCCAUGUGUGGGUAGGCUGUGUCGGCGUCAGGUAGAAGGCCACAAAA', 'MS2 coat protein', 'nM', 136);

Asked: For GGAACGAUCAUCAUUGAACAUGAGGAUCACCCAUGUACGAUGUAGGAUAUAUACCCGGUCAAGGUAUAGAAGGACAGGGUACAG , what is its reported apparent Kd?
Given back: 55.4

Asked: What do you get for CCAUUCAGAGGAUAUGCGCAUAGAUAAGACUUUUUUUUUUAACAUGAGGAUCACCCAUGUAGAAGGCUGUAACC ?
Given back: 23.1

----------
- System: MS2 coat protein
- Assay Explanation: apparent Kd, MS2 coat protein; higher = weaker binding; RNA-MaP array; FMN 200 µM where present
- Test Parameters: designed as: OFF switch for flavin mononucleotide; no ligand
The reader will find reported apparent Kd values listed item by item below.
Answer in µM, number only, no unit symbol.

INSERT INTO assay_data (residue_string, outcome_measure, experimental_result) VALUES
  ('GAUCCUUCUGUUAGGAUAUGCUUUGGGCUUCCGCAGCAGAAGGAACAUGAGGAUCACCCAUGUCAAAUAACAUC', 'apparent Kd', 0.0214),
  ('CGGUCGAUGUAAGGAUAUCGACUGGAUAACAGUCGAGAAGGUACAUGAGGAUCACCCAUGUAAUCCUAAUAAUAAUAACGACCG', 'apparent Kd', 0.0126),
  ('UGGAAGAGAAGAGGAUAUCCGUAGAUAACACAUGAGGAUCACCCAUGUAAGAGGGAUAGGUGAUAGGAGAAGGCUUAGAGAGGU', 'apparent Kd', 0.0152),
  ('UGAUAGGACAGAGGAUAUACGUGCUAGAGAUACUAGCUACAAAUCCUUACAUGAGGAUCACCCAUGUAGAAGGCUGUCCUAUCU', 'apparent Kd', 0.0193),
  ('UGUCGGAGCAGAGGAUAUUACAUGAGGAUCACCCAUGUAUGAACCAAUAGCUGGAAACAGCAAUGUAAGAAGGGUGCUCCGACA', 'apparent Kd', 0.00609);

Asked: Recorded apparent Kd of CUAUUCCGAGGAUAUACAUGAGGAUCACCCAUGUCGGGCCUCCGCGUUUAGCGCCUCAGUAGAAGGCGGGUUUC , please.
Given back: 0.0191

Asked: Now the same for AGGCGAGUAGGAUAUGCGUAUUUACAGGAAAGCUGGAUGGUACAUGAGGAUCACCCAUGUAGAAGGGCUCUGAA
Given back: 0.0212

Asked: Would you kindly repeat that for AAGUAGGUAGGAUAUGCAUAGAUACAGAUUCAUGUGGAACUACAUGAGGAUCACCCAUGUAGAAGGACCUAAUA ?
Given back: 0.0211

Asked: Let us now turn to AAGUCGCUAGGAGGAUAUACAUGAUCUCACACAUGUACCGCUCACGCCACAUGAGGAUCACCCAUGUAGAAGGCCUAGAGAGGU
Given back: 0.0234

----------
- Tested on: MS2 coat protein
- Assay Explanation: apparent Kd, MS2 coat protein; higher = weaker binding; RNA-MaP array; FMN 200 µM where present
- Test Parameters: designed as: OFF switch for flavin mononucleotide; no ligand
Examples of sequences with documented apparent Kd follow.
Give the quantity in nM, number only.

Asked: Fill in the blank: the reported apparent Kd of GACCUGAGUAAUAAUGUAGAAAUACAUGAGGAUCACCCAUGUAAGGAUAUGCAGUGGAAUACACUGCAGAAGGUACAUCUCAGG is ____.
Given back: 16.6

Asked: Please answer likewise for GUGUAGACAGGAUAUGCUUUGAGCAUAUGAGAGUAUGCUCGACAUGAGGAUCACCCAUGUAGAAGGGUCUACAC
Given back: 12.1

Asked: Cool, now AAAAAACAUGAGGAUCACCCAUGUGAGGAUAUGAUGCGAAUAAAGAAAGAAGAAAGCAUCAGAAGGCACACCUA
Given back: 50.1

Asked: // query: CAGUACUGAGGAUAUACAUGAGGAUCACCCAUGUGUUCCAGCUAGGAAACUAGCAUAAGUAGAAGGCAGUACUG
Given back: 21.2

Asked: Similarly, GGCGUGUUAGGAUAUCGCGGCGGCGGCGUUUGUUGUUGUUGUGAGAAGGAACAUGAGGAUCACCCAUGUGCGCC ?
Given back: 18.4

Asked: Now consider GUCGGAAACGACAAUGAUAGGACUGAGGAUAUACAUAAGUUUGUCCAUACAUGAGGAUCACCCAUGUAGAAGGCAGUCCUAUCU and answer again.
Given back: 6.33

Asked: Same thing, different sequence: CAGUACUGAGGAUAUACAUGAGGAUCACCCAUGUGUUGCAGCUAGGAAACUAGCAAAAGUAGAAGGCAGUACUG
Given back: 10.7

Asked: How about UUAUGUUUUGUAGGAUAUCAUUAGUUAUGUAUUAUAAUUGAAAUUUUGAUUUGAGAAGGACAUUUACAUGAGGAUCACCCAUGU ?
Given back: 13.4

Asked: Would you kindly repeat that for CUAGUACAUGAGGAUCACCCAUGUCAGGAUAUUGGAUAUGCCUUGGAAAACAUGUUUACAAGAAGGGACUAUAG ?
Given back: 19.1

Asked: Now try GUCUCAGCUGAGGAUAUAUUCUCCCUUGAGGGAAUAGAAGGCAGUACAUGAGGAUCACCCAUGUGGUUCGUUUG .
Given back: 122

Asked: Can you check GGAACGAUCAUCAUUGAACAUGAGGAUCACCCAUGUACGAUGUAGGAUAUAUACCCGGUCAAGGUAUAGAAGGACAGGGUACAG next?
Given back: 18.6

----------
Examples of sequences with documented apparent Kd follow.
- Test system: MS2 coat protein
- Assay Explanation: apparent Kd, MS2 coat protein; higher = weaker binding; RNA-MaP array; FMN 200 µM where present
- Test Parameters: ligand present: flavin mononucleotide; designed as: ON switch for flavin mononucleotide
Number only, in nM; omit the unit.

INSERT INTO results (residue_string, outcome_measure, unit_name, experimental_result) VALUES
  ('GGACAUGGGAAACCACAUGGAGAUAAGGAUAUAUAGAUGACAUGAGGAUCACCCAUGUAUGGCGAAUAGAAGGUAUGAGUGUGA', 'apparent Kd', 'nM', 16.2);

Asked: Give the measured apparent Kd of GGUGAAUGAACAUGAGGAUCACCCAUGUACAGGAAACUGAAUGAGGAUAUCCAUAGCAAAGCUAUGGAGAAGGCAUGGGUCACC .
Given back: 99.8

Asked: Same question, AAUUCAAACAGAGGAUAUUGUUUAUCUCUAUUGCAAGAAGGCUGAUCUUACUACUUACUUAUGAAACAUGAGGAUCACCCAUGU this time
Given back: 31.8

Asked: For UGAAUCAAUACAGGAUAUGGUGACGCACAUGAGGAUCACCCAUGUCCGCAGCGUGCUAAGCACGCCCAGAAGGGUAUUGAUCUG then?
Given back: 81

----------
- System: MS2 coat protein
- Assay Explanation: apparent Kd, MS2 coat protein; higher = weaker binding; RNA-MaP array; FMN 200 µM where present
- Test Parameters: designed as: OFF switch for flavin mononucleotide; no ligand
Reported apparent Kd is given for each of the following sequences.
Respond numerically; units are nM and should not be typed.

Observe how each entry below is paired with its result.
INSERT INTO results (residue_string, unit_name, experimental_result) VALUES
  ('AAAUCCGAAGGAUAUACAUCAAAAGCAAACUGACCCUCACGACAUGAGGAUCACCCAUGUAGAAGGUUGGAAAU', 'nM', 20.3),
  ('UACAUGAGGAUCACCCAUGUUUUGUCGUGUAUGGUAUUUAUCUAGGAUAUCGUGUUAUUUAACCACGAGAAGGAGAGUAUCAAU', 'nM', 27.5),
  ('AAUUUCAGAAGAGGAUAUUGACAUGAGGAUCACCCAUGUAUUUGGGAAUGUUUACUGAAUUCUUACAAGAAGGUUUACGAACUU', 'nM', 98);

Query sequence follows.
Asked: Which apparent Kd value belongs to AAAUUUAACGAAGGAUAUACUAACAUGAGGAUCACCCAUGUGUGUUUCGUGUUGCUGAAAUUCGGGUAGAAGGUCGUAUACAUA ?
Given back: 41
